Attribution: paper PMC4237513

Assay: in vitro
Settings: chlorocebus sabaeus, Dengue CC50
property: CC50

Return the recorded CC50 value; entry: Cc1ccc(NC(=O)c2nccnc2C(=O)Nc2ccccc2-c2ccncc2)cc1 [20k]
> 122 µM

Note CC50 for the compound shown: Cc1ccc(NC(=O)c2nc[nH]c2C(=O)NCCc2ccc(F)cc2)c(-c2ccco2)c1 [15n]
> 116 µM

Please look at this compound and report its CC50: O=C(NCc1ccc(-c2cccnc2)cc1)c1nc[nH]c1C(=O)Nc1ccc(F)cc1 [15e]
> 120 µM

Note CC50 for the compound shown: Cc1ccc(NC(=O)c2[nH]cnc2C(=O)Nc2ccc(C)cc2-c2ccsc2)cc1 [15k]
> 50 µM

Find the measured CC50 of O=C(NCc1ccccc1-c1ccncc1)c1nccnc1C(=O)Nc1ccc(F)cc1 [20f] and report it.
> 118 µM
